Experiment: Liver Microsome Stability Assay (rat)
Settings: rat liver microsomes, with NADPH, 1.0 uM compound
metric_name: Liver Microsome Stability (Multiple Species): Rat - % Remaining after 30 min w/NADPH (%)

>  <compound>
CC(=O)N1CCC(n2cnc(/C=C/c3csc(NC(=O)c4cccn4Cc4ccnc(F)c4)n3)c2)CC1

>  <readout_units>
%

>  <measured>
44.2

$$$$
>  <compound>
O=C(Nc1nc([C@H]2CCCN2c2ccccc2)cs1)c1cccn1CC1CCS(=O)(=O)CC1

>  <readout_units>
%

>  <measured>
0.08

$$$$
>  <compound>
CC(=O)N1CCC(Oc2ccc(N3CCC[C@@H]3c3csc(NC(=O)c4cccn4Cc4ccnc(F)c4)n3)c(F)c2)CC1

>  <readout_units>
%

>  <measured>
14.8

$$$$
>  <compound>
CC(=O)Nc1cc(F)c(N2CCC[C@@H]2c2csc(NC(=O)c3cccn3Cc3ccnc(F)c3)n2)c(F)c1

>  <readout_units>
%

>  <measured>
1

$$$$
>  <compound>
Cn1cccc1C(=O)Nc1nc([C@H]2CCCN2c2ccccc2)cs1

>  <readout_units>
%

>  <measured>
10.3

$$$$
>  <compound>
O=C(Nc1nc([C@H]2CCCN2c2ccc(OC3CCSCC3)cc2)cs1)c1cccn1Cc1ccnc(F)c1

>  <readout_units>
%

>  <measured>
2.02

$$$$
>  <compound>
O=C(Nc1nc([C@H]2CCCN2c2ccc(Cl)cc2)cs1)c1cccn1Cc1ccncc1

>  <readout_units>
%

>  <measured>
8.78

$$$$
>  <compound>
O=C(Nc1ccc(N2CCC[C@@H]2c2csc(NC(=O)c3cccn3Cc3ccnc(F)c3)n2)cc1)OC1COC1

>  <readout_units>
%

>  <measured>
57.1

$$$$
>  <compound>
O=C(Nc1nc([C@H]2CCCN2c2ccccc2)cs1)c1cccn1Cc1cccc(Br)c1

>  <readout_units>
%

>  <measured>
50.2

$$$$
>  <compound>
C[C@@H](CC#N)Cn1cccc1C(=O)Nc1nc([C@H]2CCCN2c2ccccc2)cs1

>  <readout_units>
%

>  <measured>
6.85

$$$$
>  <compound>
O=C(Nc1nc([C@H]2CCCN2c2ccc(CO)cc2)cs1)c1cccn1Cc1ccncc1

>  <readout_units>
%

>  <measured>
6.28

$$$$
>  <compound>
CNC(=O)N1CCC(Oc2ccc(N3CCC[C@@H]3c3csc(NC(=O)c4cccn4Cc4ccnc(F)c4)n3)cc2)CC1

>  <readout_units>
%

>  <measured>
15.7

$$$$
>  <compound>
CCOC(=O)Nc1ccc(N2CCC[C@@H]2c2csc(NC(=O)c3cccn3Cc3ccnc(F)c3)n2)cc1

>  <readout_units>
%

>  <measured>
46

$$$$
>  <compound>
Cc1nc(CCc2csc(NC(=O)c3cccn3Cc3ccncc3)n2)co1

>  <readout_units>
%

>  <measured>
0.19

$$$$
>  <compound>
CC(=O)N1CCCC(c2ccc(N3CCC[C@@H]3c3csc(NC(=O)c4cccn4Cc4ccncc4)n3)cc2)C1 (stereo partly shown)

>  <readout_units>
%

>  <measured>
6.07

$$$$
>  <compound>
O=C(Nc1nc(CCc2ccccn2)cs1)c1cccn1Cc1ccncc1

>  <readout_units>
%

>  <measured>
2.86

$$$$
>  <compound>
O=C(Nc1nc([C@H]2CCCN2c2ccccc2)cs1)c1cccn1Cc1ccc(F)cc1

>  <readout_units>
%

>  <measured>
49.6

$$$$
>  <compound>
CC(=O)Nc1ccc(N2CCC[C@@H]2c2csc(NC(=O)c3cccn3Cc3cc(F)nc(F)c3)n2)cc1

>  <readout_units>
%

>  <measured>
18.8

$$$$
>  <compound>
O=C(Nc1nc([C@H]2CCCN2c2ccc(OC3CCN(C(=O)CO)CC3)cc2)cs1)c1cccn1Cc1ccnc(F)c1

>  <readout_units>
%

>  <measured>
41.9

$$$$
>  <compound>
O=C(Nc1nc(/C=C/C2CN(S(=O)(=O)c3ccccc3)CCO2)cs1)c1cccn1Cc1ccncc1 (stereo not shown)

>  <readout_units>
%

>  <measured>
3.44

$$$$
>  <compound>
CCc1ccc(N2CCC[C@@H]2c2csc(NC(=O)c3cccn3Cc3ccnc(F)c3)n2)cc1

>  <readout_units>
%

>  <measured>
38.1

$$$$
>  <compound>
CC(=O)Nc1ccc(N2CCC[C@@H]2c2csc(NC(=O)c3cccn3Cc3ccncc3)n2)cc1

>  <readout_units>
%

>  <measured>
9.73

$$$$
>  <compound>
CN1CC(OC(=O)Nc2ccc(N3CCC[C@@H]3c3csc(NC(=O)c4cccn4Cc4ccnc(F)c4)n3)cc2)C1

>  <readout_units>
%

>  <measured>
17.4

$$$$
>  <compound>
CC(=O)N1CCC(Oc2ccc(N3CCC[C@@H]3c3csc(NC(=O)c4cccn4Cc4ccncc4)n3)cc2)CC1

>  <readout_units>
%

>  <measured>
5.67

$$$$
>  <compound>
CC(C)c1cc(/C=C/c2csc(NC(=O)c3cccn3Cc3ccnc(F)c3)n2)no1

>  <readout_units>
%

>  <measured>
5.78

$$$$

###

System: IL-2-FL/Gaussia Luciferase
Assay: Dox Induced IL2-FL-Gluc Assay
Assay type: cell-based
Settings: ratio of IL2FLGluc IC50 to PD1ssGluc IC50
Decide using 24 hr Dox Inducible IL2FLGluc 293FRT/TO: IL2/PD1: a value greater than or equal to 3 is fulfilled, a smaller one is not fulfilled.

>  <compound>
CC(C)c1c(/C=C/c2csc(NC(=O)c3cccn3Cc3ccncc3)n2)ncn1C [Compound B85]

>  <measured_on>
IL-2-FL/Gaussia Luciferase

>  <classification>
fulfilled

$$$$
>  <compound>
CN(C)c1ccc(N2CCC[C@@H]2c2csc(NC(=O)c3cccn3Cc3ccncc3)n2)cc1 [Compound A16]

>  <measured_on>
IL-2-FL/Gaussia Luciferase

>  <classification>
not fulfilled

$$$$
>  <compound>
COC(=O)Nc1ccc(N2CCC[C@@H]2c2csc(NC(=O)c3cccn3Cc3ccnc(F)c3)n2)cc1 [Compound A144]

>  <measured_on>
IL-2-FL/Gaussia Luciferase

>  <classification>
fulfilled

$$$$
>  <compound>
COC(=O)Nc1ccc(N2CCC[C@@H]2c2csc(NC(=O)c3cc(C)cn3Cc3ccnc(F)c3)n2)nc1 [Compound A180]

>  <measured_on>
IL-2-FL/Gaussia Luciferase

>  <classification>
fulfilled

$$$$
>  <compound>
C[S+]([O-])N1CC(Oc2ccc(N3CCC[C@@H]3c3csc(NC(=O)c4cccn4Cc4ccnc(F)c4)n3)cc2)C1 (some centres unmarked) [Compound A153]

>  <measured_on>
IL-2-FL/Gaussia Luciferase

>  <classification>
not fulfilled

$$$$
>  <compound>
O=C(Nc1nc(/C=C/c2ccc3c(n2)CCCC3)cs1)c1cccn1Cc1ccnc(F)c1 [Compound B60]

>  <measured_on>
IL-2-FL/Gaussia Luciferase

>  <classification>
fulfilled

$$$$
>  <compound>
CN1CC(OC(=O)Nc2ccc(N3CCC[C@@H]3c3csc(NC(=O)c4cccn4Cc4ccnc(F)c4)n3)cc2)C1 [Compound A173]

>  <measured_on>
IL-2-FL/Gaussia Luciferase

>  <classification>
not fulfilled

$$$$
>  <compound>
O=C(Nc1nc([C@H]2CCCN2c2ccc(OC3CCNC3)cc2)cs1)c1cccn1Cc1ccnc(F)c1 (some centres unmarked) [Compound A80]

>  <measured_on>
IL-2-FL/Gaussia Luciferase

>  <classification>
fulfilled

$$$$
>  <compound>
CN1c2ccccc2CCC1/C=C/c1csc(NC(=O)c2cccn2Cc2ccncc2)n1 (centres unmarked) [Compound B8]

>  <measured_on>
IL-2-FL/Gaussia Luciferase

>  <classification>
fulfilled

$$$$
>  <compound>
CNC(=O)N1CC(Oc2ccc(N3CCC[C@@H]3c3csc(NC(=O)c4cccn4Cc4ccnc(F)c4)n3)cc2)C1 [Compound A125]

>  <measured_on>
IL-2-FL/Gaussia Luciferase

>  <classification>
not fulfilled

$$$$
>  <compound>
COC(=O)Nc1ccc(N2CCC[C@@H]2c2csc(NC(=O)c3cc(C)cn3Cc3ccnc(F)c3)n2)cc1 [Compound A172]

>  <measured_on>
IL-2-FL/Gaussia Luciferase

>  <classification>
not fulfilled

$$$$

###

Test: Liver Microsome Stability Assay (monkey)
Conditions: monkey liver microsomes, with NADPH, 1.0 uM compound
Each record here notes measured Liver Microsome Stability (Multiple Species): Monkey - % Remaining after 30 min w/NADPH.
metric_name: Liver Microsome Stability (Multiple Species): Monkey - % Remaining after 30 min w/NADPH (%)

>  <molecule>
CCc1ccc(N2CCC[C@@H]2c2csc(NC(=O)c3cccn3Cc3ccncc3)n2)cn1 [Compound C95]

>  <measured>
0.11

$$$$
>  <molecule>
O=C(Nc1nc([C@H]2CCCN2c2ccc(OC3CCN(C(=O)C(F)(F)F)CC3)cc2)cs1)c1cccn1Cc1ccnc(F)c1 [Compound A92]

>  <measured>
22.5

$$$$
>  <molecule>
CC(=O)N1CC(CCc2ccc(N3CCC[C@@H]3c3csc(NC(=O)c4cccn4Cc4ccnc(F)c4)n3)cc2)C1 [Compound A176]

>  <measured>
0.16

$$$$
>  <molecule>
O=C(Nc1nc([C@H]2CCCN2c2ccc(O[C@@H]3CCCNC3)cc2)cs1)c1cccn1Cc1ccnc(F)c1 [Compound A87]

>  <measured>
32.6

$$$$

Ref: patent US20230286973A1
